These data points were gathered from patent US20220112288A1.

# gMFI on SKW3 WT, anti-hu Kappa FITC per record follows
target: T1, human CD4 on cells (SKW3 cells; human PBMCs) (human, UniProt P01730 26-458); test: FACS confirmation, supernatant on SKW3 cells; background gMFI 2500
T1 construct: whole, on cells; SKW3 CD4 knockout cells served as the negative cell line in the primary screen; also called hCD4; huCD4
property.measured: gMFI on SKW3 WT, anti-hu Kappa FITC (gMFI)

| binder | meas.value |
| --- | --- |
| 75110_06G04A (antibody, V domains shown, Tested as non-clonal AlivaMab Mouse Kappa hybridoma supernatant (detected with anti-mouse Fc gamma and anti-human kappa)) VH: QVQLLESGPGLVKPSETLSLTCTVSGGSISSYYWSWIRQPAGKGLEWIGRIYISGSTNYNPSLKSRVTMSIDTSENQFSLNLSSVTAADTAVYYCARELERPYYYGMDVWGQGTTVTVSS VL: DIQMTQSPSSLSASVGDRVTITCQASQDISNYLNWYQQKPGKAPKLLIYNASTLETGVPSRFSGSGSGTDFTFTISSLQPEDIATYYCQQYDNLPLTFGGGTKVEFK | 8480 |
| 75110_02N15A (antibody, V domains shown, Tested as non-clonal AlivaMab Mouse Kappa hybridoma supernatant (detected with anti-mouse Fc gamma and anti-human kappa)) VH: EVQLVESGGGLVQPGGSLRLSCAASGFTFSSYWMSWVRQAPGKGLEWVANINEDGNEKYYVDSVKGRFTISRDNAKNSLFLQMNSLRAEDTAVYFCAREGGQWLALDHWGQGALVTVSS VL: DIQMTQSPSSVSASVGDRVTITCRASQGISSWLAWYQQKPGKAPKFLISGASSLQSGVPSRFSGSGSGTDFTLTISSLQPEDFATYYCQQANSFPWTFGQGTKVEFK | 5000 |
| 75110_08D24A (antibody, V domains shown, Tested as non-clonal AlivaMab Mouse Kappa hybridoma supernatant (detected with anti-mouse Fc gamma and anti-human kappa)) VH: QVQLQESGPGLVKPSETLSLTCTVSGGSISGFYWSWIRQPAGKGLEWIGRIYTSENTNYNPSLKSRVTMSVDTSKNQFSLKLSSVTAADTAVYYCARDREGYYYYGMDVWGQGTTVTVSS VL: DIQMTQSPSSLSASVGDRVTITCQASQDISNYLNWYQQKPGKAPKLLIYAASNLETGVPSRFSGSGSGTDFTFTISSLQPEDIATYYCQQYDSLPITFGQGTRLEIK | 3570 |
